target: 3',5'-cyclic-AMP phosphodiesterase 4D (Homo sapiens, UniProt Q08499); type: functional; further: assay procedure not described here
Sequence (Q08499 whole entry): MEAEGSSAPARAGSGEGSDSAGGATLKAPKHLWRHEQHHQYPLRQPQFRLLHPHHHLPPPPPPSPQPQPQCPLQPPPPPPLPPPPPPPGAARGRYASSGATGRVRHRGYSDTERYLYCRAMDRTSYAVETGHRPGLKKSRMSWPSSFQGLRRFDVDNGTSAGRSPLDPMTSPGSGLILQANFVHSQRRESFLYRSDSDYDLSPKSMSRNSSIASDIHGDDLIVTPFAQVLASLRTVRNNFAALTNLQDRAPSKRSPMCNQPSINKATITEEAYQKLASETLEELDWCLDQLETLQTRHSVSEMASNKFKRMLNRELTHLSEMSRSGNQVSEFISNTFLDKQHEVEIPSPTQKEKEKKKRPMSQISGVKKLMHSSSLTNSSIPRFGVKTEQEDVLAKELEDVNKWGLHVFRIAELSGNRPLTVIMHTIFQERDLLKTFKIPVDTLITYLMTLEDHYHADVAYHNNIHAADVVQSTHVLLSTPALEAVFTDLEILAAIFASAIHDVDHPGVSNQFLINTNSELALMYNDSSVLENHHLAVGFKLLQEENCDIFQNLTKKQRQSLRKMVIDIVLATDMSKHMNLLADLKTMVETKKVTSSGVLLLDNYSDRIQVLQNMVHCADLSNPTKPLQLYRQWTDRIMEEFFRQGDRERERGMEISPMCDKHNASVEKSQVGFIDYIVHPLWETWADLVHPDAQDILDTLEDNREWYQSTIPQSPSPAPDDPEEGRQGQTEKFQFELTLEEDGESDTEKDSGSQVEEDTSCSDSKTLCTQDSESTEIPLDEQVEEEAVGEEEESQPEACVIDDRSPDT
Catalogue of AC50 values

molecule | AC50
Nc1nnc(-c2cccc(Cl)c2Cl)c(N)n1 | > 30 µM
CCN(CC)C(C)C(=O)c1ccccc1 (stereo unspecified) | > 30 µM
CNC1(C)C2CCC(C2)C1(C)C (stereo unspecified) | > 30 µM
CN(C)[C@@H]1C(O)=C(C(=O)NCN2CCCC2)C(=O)[C@@]2(O)C(O)=C3C(=O)c4c(O)cccc4[C@@](C)(O)[C@H]3C[C@@H]12 | > 30 µM
CN(Cc1ccc(C(C)(C)C)cc1)Cc1cccc2ccccc12 | > 30 µM
CCN1C(=O)NC(c2ccccc2)C1=O (stereo unspecified) | > 30 µM
C=C(c1ccccc1OCc1cccc(Cl)c1)n1ccnc1 | 7.1 µM
Cc1ccc(-c2ncc(Cl)cc2-c2ccc(S(C)(=O)=O)cc2)cn1 | 9 µM
CC(=O)Oc1ccccc1C(=O)O | > 30 µM
O=C(O)c1ccc2nc(-c3cc(Cl)cc(Cl)c3)oc2c1 | 10.3 µM
CCC(NC(C)C)C(O)c1ccc(O)c(O)c1 (stereo unspecified) | > 30 µM
